Taken from ChEMBL document CHEMBL1152747.

# assay summary: Plasma concentration in mouse at 50 mg/kg, po after 4 hrs
# Type: ADME, organism-based
# Parameters: dose 50 mg/kg, route oral
# key: entry, value: concentration at 4 h
Entry rule: numbers only, all in ng/mL.

>>> measurement("CC(C)NC(=O)Nc1cc(-c2ccnc3c(C(=O)c4cccs4)cnn23)ccc1F")
8

Shift focus to the following entry.
Reported concentration at 4 h for CC(C)CC(=O)Nc1cc(-c2ccnc3c(C(=O)c4cccs4)cnn23)ccc1F was 40

====

# assay summary: Plasma concentration in mouse at 50 mg/kg, po after 1 hr
# Assay type: ADME, organism-based
# Set-up: dose 50 mg/kg, route oral
Each entry below carries its reported concentration at 1 h.
Report the figure in ng/mL without appending any unit label.

>>> measurement("CC(C)NC(=O)Nc1cc(-c2ccnc3c(C(=O)c4cccs4)cnn23)ccc1F")
14

Next:
Form field concentration at 1 h, entry CC(C)CC(=O)Nc1cc(-c2ccnc3c(C(=O)c4cccs4)cnn23)ccc1F : 110
